# test_system: ACL (Homo sapiens (Human))
# test_protocol: ADP-Glo Assay
# Sequence (P53396 other isoform, or with tags, fused parts or gaps isoform P53396-2): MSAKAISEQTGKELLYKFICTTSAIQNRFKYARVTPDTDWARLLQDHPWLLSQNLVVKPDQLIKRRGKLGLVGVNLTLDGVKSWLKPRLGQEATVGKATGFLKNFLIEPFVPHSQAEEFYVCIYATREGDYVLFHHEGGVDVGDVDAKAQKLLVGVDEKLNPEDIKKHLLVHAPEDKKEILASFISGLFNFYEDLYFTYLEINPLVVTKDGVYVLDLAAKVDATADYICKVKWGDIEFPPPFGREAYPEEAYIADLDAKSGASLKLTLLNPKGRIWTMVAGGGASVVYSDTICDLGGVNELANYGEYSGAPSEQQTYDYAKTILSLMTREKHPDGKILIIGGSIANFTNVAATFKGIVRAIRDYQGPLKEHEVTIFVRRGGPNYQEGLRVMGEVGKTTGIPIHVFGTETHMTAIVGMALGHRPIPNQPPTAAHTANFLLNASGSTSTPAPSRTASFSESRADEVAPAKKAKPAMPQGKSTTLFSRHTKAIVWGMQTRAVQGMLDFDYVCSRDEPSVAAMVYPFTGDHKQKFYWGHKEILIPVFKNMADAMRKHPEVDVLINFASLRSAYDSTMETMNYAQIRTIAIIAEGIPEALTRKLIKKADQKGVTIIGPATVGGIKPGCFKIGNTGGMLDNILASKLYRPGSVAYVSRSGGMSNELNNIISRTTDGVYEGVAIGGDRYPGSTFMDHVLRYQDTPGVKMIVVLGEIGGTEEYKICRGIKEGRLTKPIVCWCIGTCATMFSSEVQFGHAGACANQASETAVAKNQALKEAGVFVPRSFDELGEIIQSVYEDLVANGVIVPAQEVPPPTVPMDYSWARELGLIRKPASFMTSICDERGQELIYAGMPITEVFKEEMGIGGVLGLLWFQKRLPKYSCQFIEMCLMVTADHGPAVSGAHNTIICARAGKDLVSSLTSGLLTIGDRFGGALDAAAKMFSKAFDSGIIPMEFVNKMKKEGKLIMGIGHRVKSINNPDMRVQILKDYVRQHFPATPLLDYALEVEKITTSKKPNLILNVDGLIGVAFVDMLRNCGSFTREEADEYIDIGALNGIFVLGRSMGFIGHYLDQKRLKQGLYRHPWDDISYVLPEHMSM
pIC50: −log10 of the molar value.
measurement_name: pIC50

Solved entries:
Short answer for O=C(c1cc(Cl)c(O)c(S(=O)(=O)Cc2cc(-c3ccccc3)c(F)cc2F)c1)N1CCCC1 [I-211] : pIC50 was 4.70 to 6.30

Short answer for COc1c(Cl)cc(C(F)(F)F)cc1S(=O)(=O)Nc1cc(-c2ccccc2)ccc1C(=O)O [I-296] : pIC50 was 6.30 to 7.30

Short answer for CC(C)(C)OC(=O)n1ccc2cccc(S(=O)(=O)Nc3cc(-c4ccccc4)ccc3F)c21 [I-382] : pIC50 was < 4.70

Short answer for NC(=O)c1ccc(F)c(S(=O)(=O)Nc2cc(-c3ccccc3)ccc2F)c1 [I-429] : pIC50 was < 4.70

Short answer for NC(=O)COc1c(Cl)cc(Cl)cc1C(=O)Nc1cc(-c2ccccc2)ccc1C(=O)O [I-320] : pIC50 was 4.70 to 6.30

***
Short answer for COc1c(Cl)cc(C(=O)O)cc1S(=O)(=O)Nc1cc(-c2ccccc2)c(F)cc1F [I-62] : pIC50 was 4.70 to 6.30

Short answer for CO[C@H]1CCN(C(=O)c2cc(Cl)cc(S(=O)(=O)Nc3cc(-c4ccccc4)c(F)cc3F)c2)C1 [I-389] : pIC50 was < 4.70

Short answer for CC(=O)N1CCCN(c2ccc(-c3ccccc3)cc2NS(=O)(=O)c2cc(Cl)cc(Cl)c2O)CC1 [I-279] : pIC50 was 4.70 to 6.30

* * *

Listing: pIC50 of selected compounds
# test_system: ACL (Homo sapiens (Human))
# test_protocol: ADP-Glo Assay
pIC50: −log10 of the molar value.

Short answer for O=C(O)c1ccc(-c2ccccc2)cc1NS(=O)(=O)c1cccnc1Cl : pIC50 was 4.70 to 6.30

Short answer for O=C(O)COc1ccc(-c2ccccc2)cc1NS(=O)(=O)c1cc(C(F)(F)F)cc(Cl)c1O : pIC50 was 4.70 to 6.30

Short answer for COc1ccc(-c2ccccc2)cc1NS(=O)(=O)c1cc(Cl)cc(C#N)c1 : pIC50 was < 4.70

Short answer for O=C(O)c1sccc1NS(=O)(=O)c1cc(Cl)cc(Cl)c1 : pIC50 was 4.70 to 6.30

Short answer for O=S(=O)(NC(c1ccccc1)c1ccccc1)c1cc(Cl)cc(Cl)c1O : pIC50 was 4.70 to 6.30

* * *

Listing: IC50 of selected compounds
# test_system: ACL (Homo sapiens (Human), UniProt P53396)
# test_protocol: ADP-Glo Assay

Solved entries:
Short answer for O=C(O)COc1c(Cl)cc(Cl)cc1C(=O)Nc1cc(-c2ccccc2)ccc1C(=O)O : IC50 was 500 to 20000 nM

Short answer for N#Cc1cc(S(=O)(=O)Nc2cc(-c3ccccc3)ccc2F)ccc1Cl : IC50 was 500 to 20000 nM

Short answer for O=C(O)c1cc(Cl)c(O)c(C(=O)Nc2cc(-c3ccccc3)c(F)cc2F)c1 : IC50 was 500 to 20000 nM

Short answer for O=S(=O)(Nc1cc(-c2ccccc2)ccn1)c1cc(Cl)cc(Br)c1O : IC50 was 500 to 20000 nM

Short answer for O=C(COc1c(Br)cc(Cl)cc1S(=O)(=O)N(Cc1ccccc1)c1cc(-c2ccccc2)ccc1F)OCc1ccccc1 : IC50 was > 20000 nM

Short answer for CC(=O)NC1CN(C(=O)c2cc(Cl)c(O)c(S(=O)(=O)Nc3cc(-c4ccccc4)c(F)cc3F)c2)C1 : IC50 was 50 to 500 nM

***
Short answer for O=C(O)COc1ccc(-c2ccccc2)cc1NS(=O)(=O)c1cc(C(=O)N2CCC2)cc(Cl)c1O : IC50 was 500 to 20000 nM

Short answer for CS(=O)(=O)c1cc(Cl)c(O)c(S(=O)(=O)Nc2cc(-c3ccccc3)c(F)cc2F)c1 : IC50 was 50 to 500 nM

Short answer for COc1ccc(-c2ccccc2)cc1N(Cc1ccccc1)S(=O)(=O)c1cn[nH]c1 : IC50 was > 20000 nM

Short answer for O=C(O)c1cc(Cl)c(O)c(S(=O)(=O)Nc2ccccc2F)c1 : IC50 was 500 to 20000 nM

Short answer for O=C(c1cc(Cl)c(O)c(S(=O)(=O)Nc2cc(C3CC3)c(F)cc2F)c1)N1CCC1 : IC50 was 50 to 500 nM

* * *

# test_system: ACL (Homo sapiens (Human), UniProt P53396)
# test_protocol: ADP-Glo Assay
Listing: IC50 of selected compounds

Short answer for O=C(O)c1ncc(-c2ccccc2)cc1NS(=O)(=O)c1cc(Cl)cc(Cl)c1 : IC50 was 0.5 to 20 µM

Short answer for COc1ccc(-c2ccccc2)cc1NS(=O)(=O)c1cc(Cl)c[nH]c1=O : IC50 was 0.5 to 20 µM

Short answer for Cc1cccc(C(=O)O)c1NS(=O)(=O)c1cc(Cl)cc(Cl)c1 : IC50 was > 20 µM

***
Short answer for O=C(O)COc1ccc(-c2ccccc2)cc1NS(=O)(=O)c1cc(F)cc(Cl)c1 : IC50 was 0.5 to 20 µM

Short answer for COC(=O)c1cc(Cl)c(O)c(C(=O)Nc2cc(-c3ccccc3)c(F)cc2F)c1 : IC50 was 0.5 to 20 µM

Short answer for COc1ccc(C)cc1S(=O)(=O)Nc1cc(-c2ccccc2)ccc1C(=O)O : IC50 was 0.5 to 20 µM

Short answer for O=C(O)c1ccc(-c2ccccc2)cc1NS(=O)(=O)c1cc(Cl)cc(Cl)c1O : IC50 was 0.5 to 20 µM

Short answer for O=S(=O)(Nc1cc(Cl)cc(-c2nccs2)c1)c1cc(Cl)cc(Cl)c1O : IC50 was 0.5 to 20 µM

Short answer for CS(=O)(=O)c1ccccc1S(=O)(=O)Nc1cc(-c2ccccc2)c(F)cc1F : IC50 was > 20 µM

* * *

# Test system: HepG2 cells
# stated_conditions: Homo sapiens, HepG2, read-out: ACLY HepG2 14C-Pyruvate Assay serum free IC50 FA (IC50) [μM]
Listing: IC50 of selected compounds

Solved entries:
Short answer for O=S(=O)(NC(c1ccccc1)c1ccccc1)c1cc(Cl)cc(Cl)c1O : IC50 was 1 to 10 µM

Short answer for COC(=O)c1cc(Cl)c(O)c(S(=O)(=O)Nc2cc(-c3cc4ccccc4s3)c(F)cc2F)c1 : IC50 was > 10 µM

Short answer for CCOc1c(Cl)cc(Cl)cc1S(=O)(=O)Nc1cc(-c2ccccc2)ccc1C(=O)O : IC50 was 1 to 10 µM

Short answer for O=C(O)c1ccc(-c2cccs2)cc1NS(=O)(=O)c1cc(Cl)cc(Cl)c1 : IC50 was 1 to 10 µM

Short answer for O=C(O)c1ccc(-c2ccccc2)cc1NS(=O)(=O)c1cccc(-n2cnnn2)c1 : IC50 was > 10 µM

***
Short answer for COC(=O)c1cc(Cl)c(O)c(S(=O)(=O)Nc2cc(C(C)C)c(F)cc2F)c1 : IC50 was > 10 µM

Short answer for O=S(=O)(Nc1cc(-c2ccccc2)c(F)cc1F)c1cc(F)cc(Cl)c1O : IC50 was 1 to 10 µM

Short answer for Cc1cc(C(=O)O)c(NS(=O)(=O)c2cc(Cl)cc(C(F)(F)F)c2)cc1-c1ccccc1 : IC50 was 1 to 10 µM

Short answer for COC(=O)c1cc(Cl)c(O)c(S(=O)(=O)Nc2cc(-c3ccccc3)c(F)cc2F)c1C : IC50 was 1 to 10 µM

Short answer for O=c1[nH]cc(Cl)cc1S(=O)(=O)Nc1cc(-c2ccccc2)c(F)cc1F : IC50 was > 10 µM

Short answer for O=C(O)c1ccc(-c2ccccc2)cc1NS(=O)(=O)c1cc(Cl)cc(Cl)c1 : IC50 was 1 to 10 µM

Short answer for CC(C)OC(=O)c1cc(Cl)c(O)c(S(=O)(=O)Nc2cc(-c3ccccc3)c(F)cc2F)c1 : IC50 was > 10 µM

Short answer for COC(=O)c1cc(Cl)c(O)c(S(=O)(=O)Nc2cc(C3CC3)c(F)cc2F)c1 : IC50 was > 10 µM

* * *

# test_system: UniProt P53396
# test_protocol: ACLY-MDH Coupled Assay
# Sequence (P53396 whole entry, species assumed): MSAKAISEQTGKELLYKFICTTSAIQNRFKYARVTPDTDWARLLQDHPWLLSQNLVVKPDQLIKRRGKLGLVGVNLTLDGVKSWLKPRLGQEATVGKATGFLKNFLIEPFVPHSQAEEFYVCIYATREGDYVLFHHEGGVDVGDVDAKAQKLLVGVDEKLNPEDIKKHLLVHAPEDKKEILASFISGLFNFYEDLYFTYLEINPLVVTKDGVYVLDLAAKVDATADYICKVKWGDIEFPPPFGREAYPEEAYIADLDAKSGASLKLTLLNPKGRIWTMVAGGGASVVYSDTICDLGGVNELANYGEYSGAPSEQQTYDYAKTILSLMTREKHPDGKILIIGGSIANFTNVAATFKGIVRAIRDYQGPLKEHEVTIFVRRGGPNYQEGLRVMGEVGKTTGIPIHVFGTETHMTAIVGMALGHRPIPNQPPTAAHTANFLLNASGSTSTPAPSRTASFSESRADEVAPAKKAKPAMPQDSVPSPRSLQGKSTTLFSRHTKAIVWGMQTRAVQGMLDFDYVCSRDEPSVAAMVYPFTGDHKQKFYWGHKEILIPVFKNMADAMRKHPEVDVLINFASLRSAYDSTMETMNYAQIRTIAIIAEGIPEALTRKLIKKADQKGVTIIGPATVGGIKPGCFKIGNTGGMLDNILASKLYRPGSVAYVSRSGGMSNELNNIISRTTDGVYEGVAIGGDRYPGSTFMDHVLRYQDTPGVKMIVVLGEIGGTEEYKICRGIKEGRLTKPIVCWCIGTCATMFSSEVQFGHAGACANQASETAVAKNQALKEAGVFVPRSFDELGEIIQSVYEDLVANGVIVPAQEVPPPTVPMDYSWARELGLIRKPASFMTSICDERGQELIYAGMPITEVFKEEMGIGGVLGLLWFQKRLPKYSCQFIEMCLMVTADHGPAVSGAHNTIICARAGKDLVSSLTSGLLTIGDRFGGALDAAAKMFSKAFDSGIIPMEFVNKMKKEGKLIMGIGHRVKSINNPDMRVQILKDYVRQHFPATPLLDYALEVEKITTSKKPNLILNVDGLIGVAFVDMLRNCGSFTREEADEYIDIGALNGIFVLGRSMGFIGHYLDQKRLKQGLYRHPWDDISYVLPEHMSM
measurement_name: IC50

Short answer for COC(=O)Cc1cc(Cl)c(O)c(S(=O)(=O)Nc2cc(-c3ccccc3)ccc2OC)c1 : IC50 was 500 to 30000 nM

Short answer for O=C(O)c1ccc(-c2ccccc2)cc1NS(=O)(=O)c1cc(Cl)cc(Cl)c1O : IC50 was 500 to 30000 nM

Short answer for O=C(c1cc(Cl)c(O)c(S(=O)(=O)Nc2cc(C3CC3)c(F)cc2F)c1)N1CCCC1 : IC50 was 500 to 30000 nM

* * *

# System: HepG2 cells
# stated_conditions: Homo sapiens, HepG2, read-out: ACLY HepG2 14C-Pyruvate Assay serum free IC50 FA (IC50) [μM]
measurement_name: IC50

Short answer for COC(=O)c1cc(Cl)c(O)c(S(=O)(=O)Nc2cc(-c3ccccc3)ccc2F)c1 [I-47] : IC50 was 1 to 10 µM

Short answer for COc1c(Cl)cc(Cl)cc1S(=O)(=O)Nc1cc(-c2ccccc2)ccc1C(=O)O [I-281] : IC50 was 1 to 10 µM

Short answer for O=S(=O)(c1cc(Cl)cc(Br)c1O)N(Cc1ccccc1)c1cc(-c2ccccc2)ccc1F [I-36] : IC50 was 1 to 10 µM

Short answer for O=C(O)c1ccc(-c2ccccc2)cc1NS(=O)(=O)c1cc(Cl)cc(C(F)(F)F)c1 [I-220] : IC50 was 1 to 10 µM

Short answer for O=S(=O)(Nc1cc(-c2ccccc2)c(F)cc1F)c1cc(-c2cncs2)cc(Cl)c1O [I-123] : IC50 was 1 to 10 µM

***
Short answer for O=C(Oc1c(Cl)cc(C(=O)N2CCC2)cc1S(=O)(=O)Nc1cc(-c2ccccc2)c(F)cc1F)C1CC1 [I-236] : IC50 was > 10 µM

Short answer for O=C(c1cc(Cl)c(O)c(S(=O)(=O)Nc2cc(-c3cc4ccccc4s3)c(F)cc2F)c1)N1CCC1 [I-138] : IC50 was 1 to 10 µM

Short answer for N#Cc1cc(Cl)c(O)c(S(=O)(=O)Nc2cc(-c3ccccc3)ccc2F)c1 [I-31] : IC50 was > 10 µM
